measurement.notes: n-Octanol/water partition coefficient, logD of the compound
Assay type: physicochemical
measured.attribute: logP

Consider N[C@@H](Cc1ccc(O)c(O)c1)C(=O)NCCCCCNc1cccc2c1C(=O)N(C1CCC(=O)NC1=O)C2=O (stereo partly specified) . Its measured logP is -0.65
